Label 1 when logP is at or above 0.7; otherwise label -1.

Example results:
O=C(O)c1c(Cl)cccc1Cl
1
CCC1COC(Cn2cncn2)(c2ccc(-c3ccccc3)cc2)O1 (centres undefined)
1
CC(N)(Cc1ccc(O)cc1)C(=O)O (centres undefined)
-1
CCC(=O)c1ccccc1O
1
Oc1ccc(Cl)cc1Cc1cc(Cl)ccc1O
1
ClC1CC(Cl)C(Cl)C(Cl)C1Cl (centres undefined)
1

QUERY: Decide: logP of "NC(=O)Nc1cccc2cccnc12" >= 0.7?
RESULT: 1

QUERY: Please give the result for "COc1ccc(OC(C)=O)cc1" too.
RESULT: 1

QUERY: Please give the result for "CCCC(=O)O[C@H]1[C@H](C)O[C@@H](O[C@H]2[C@H](N(C)C)[C@@H](O)[C@H](O[C@H]3[C@@H](CC=O)C[C@@H](C)[C@@H](O)C=CC=CC[C@@H](C)OC(=O)C[C@@H](O)[C@@H]3OC)O[C@@H]2C)C[C@@]1(C)OC(=O)CC" too.
RESULT: 1

QUERY: Please give the result for "Cc1cc[nH]c(=O)n1" too.
RESULT: -1

QUERY: Please give the result for "CC(=O)c1ccc(S(N)(=O)=O)cc1" too.
RESULT: -1

QUERY: Please give the result for "CN(C)Cc1ccccc1" too.
RESULT: 1

QUERY: Please give the result for "COc1cccc(OC)c1C(=O)O" too.
RESULT: -1

QUERY: Please give the result for "CCNC(N)=O" too.
RESULT: -1
